# ASSAY_TARGET: rat VR1 (Rattus norvegicus, UniProt O35433)
# Construct: expressed in transfected cells
# Sequence (O35433 whole entry): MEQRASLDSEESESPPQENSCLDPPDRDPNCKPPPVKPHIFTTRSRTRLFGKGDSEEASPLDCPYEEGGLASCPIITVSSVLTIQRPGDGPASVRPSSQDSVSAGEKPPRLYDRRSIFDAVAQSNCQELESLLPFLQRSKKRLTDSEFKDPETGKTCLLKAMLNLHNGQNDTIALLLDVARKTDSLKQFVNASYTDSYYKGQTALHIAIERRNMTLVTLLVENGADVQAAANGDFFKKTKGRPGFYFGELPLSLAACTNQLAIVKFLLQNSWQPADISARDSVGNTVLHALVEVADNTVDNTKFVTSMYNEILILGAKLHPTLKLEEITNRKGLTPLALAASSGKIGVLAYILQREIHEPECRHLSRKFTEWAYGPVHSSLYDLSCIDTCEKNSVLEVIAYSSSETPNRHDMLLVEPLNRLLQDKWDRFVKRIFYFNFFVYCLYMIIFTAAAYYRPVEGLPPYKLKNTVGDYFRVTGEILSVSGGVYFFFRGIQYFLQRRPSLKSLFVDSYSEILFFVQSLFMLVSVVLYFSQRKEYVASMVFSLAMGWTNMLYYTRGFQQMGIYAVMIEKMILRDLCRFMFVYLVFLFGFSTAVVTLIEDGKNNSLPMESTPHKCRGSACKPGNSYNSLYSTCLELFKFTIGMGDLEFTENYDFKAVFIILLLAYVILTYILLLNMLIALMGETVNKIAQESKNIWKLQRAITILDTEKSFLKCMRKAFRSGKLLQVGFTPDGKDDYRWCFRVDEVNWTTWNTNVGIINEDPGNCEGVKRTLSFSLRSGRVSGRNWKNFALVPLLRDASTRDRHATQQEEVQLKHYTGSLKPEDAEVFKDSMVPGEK
# ASSAY_EXPLANATION: 45Ca2+-uptake assay in CHO/VR1 cells, antagonism of capsaicin-stimulated uptake
# Format: cell-based
# COND: 45Ca2+ uptake stimulated by 50 nM capsaicin
# Protocol: Initial stocks were dissolved in DMSO. For the binding assays, compounds were diluted in with DPBS with Ca^2+ and Mg^2+ and 0.25 mg/mL bovine serum albumin. […] Molecules were characterized to determine whether they were full agonists, partial agonists, or antagonists. […] Plates were shaken slowly for 20 min; then 306 μL of cell lysate was transferred from each well into a scintillation vial and radioactivity was determined by scintillation counting. […]
METRIC_NAME: Ki (nM)
Supply the numeric figure in nM, leaving out any unit text.

Lookup: Note down Ki recorded for CC(C(=O)NCc1ccc(Cl)c(Cl)c1)c1ccc(NS(C)(=O)=O)c(Br)c1 (centres unmarked) [4-6]
Found: 89.6

Lookup: Note down Ki recorded for CC(C(=O)NCc1ccc(C(C)(C)C)cc1)c1ccc(NS(C)(=O)=O)cc1 (centres unmarked) [2-7]
Found: 17.5

Lookup: Note down Ki recorded for CC(C(=O)NCc1ccc(C(C)(C)C)cc1)c1cc(F)c(NS(C)(=O)=O)c(F)c1 (centres unmarked) [1-55]
Found: 7.38

Lookup: Note down Ki recorded for Cc1ccc(CC(CNC(=S)NC(C)c2ccc(NS(C)(=O)=O)cc2)COC(=O)C(C)(C)C)cc1C (centres unmarked) [18-5]
Found: 25.9

Lookup: Note down Ki recorded for C[C@H](NC(=S)NC[C@@H](COC(=O)C(C)(C)C)Cc1ccccc1)c1ccc(NS(C)(=O)=O)cc1 [18-4]
Found: 133

Lookup: Note down Ki recorded for CCC(NC(=S)NCc1ccc(C(C)(C)C)cc1)c1ccc(NS(C)(=O)=O)c(F)c1 (centres unmarked) [20-12]
Found: 54.3

Lookup: Note down Ki recorded for C[C@@H](NC(=S)N[C@H](COC(=O)C(C)(C)C)Cc1ccccc1)c1ccc(NS(C)(=O)=O)cc1 [19-14]
Found: 290

Lookup: Note down Ki recorded for Cc1ccc(CC(CNC(=S)NC(C)c2ccc(NS(C)(=O)=O)c(F)c2)COC(=O)C(C)(C)C)cc1C (centres unmarked) [18-13]
Found: 7.09

Lookup: Note down Ki recorded for Cc1ccc(CC(CNC(=O)C2(c3ccc(NS(C)(=O)=O)c(F)c3)CC2)COC(=O)C(C)(C)C)cc1C (centres unmarked) [12-2]
Found: 567

Lookup: Note down Ki recorded for C[C@@H](C(=O)NCc1ccc(C(C)(C)C)cc1)c1ccc(NS(C)(=O)=O)c(F)c1 [3-6]
Found: 102

Lookup: Note down Ki recorded for Cc1ccc(CCCNC(=O)[C@H](C)c2ccc(NS(C)(=O)=O)c(F)c2)cc1C [4-16]
Found: 204

Lookup: Note down Ki recorded for COc1cc(C2(NC(=S)NCc3ccc(C(C)(C)C)cc3)CC2)ccc1NS(C)(=O)=O [22-9]
Found: 243

Lookup: Note down Ki recorded for CC(C)(C)c1ccc(CNC(=O)C2(c3ccc(NS(C)(=O)=O)cc3)CC2)cc1 [12-7]
Found: 1760

Lookup: Note down Ki recorded for Cc1ccc(CC(CNC(=S)N[C@H](C)c2ccc(NS(C)(=O)=O)cc2)COC(=O)C(C)(C)C)cc1C (some centres unmarked) [18-6]
Found: 6.86

Lookup: Note down Ki recorded for Cc1ccc(CC(CNC(=O)C(C)c2ccc(NS(C)(=O)=O)c(Cl)c2)COC(=O)C(C)(C)C)cc1C (centres unmarked) [5-7]
Found: 35.7

Lookup: Note down Ki recorded for Cc1ccc(CC(CNC(=O)C2(c3ccc(NS(C)(=O)=O)cc3)CC2)COC(=O)C(C)(C)C)cc1C (centres unmarked) [12-1]
Found: 197

Lookup: Note down Ki recorded for CC(C(=O)NCc1ccc(C(C)(C)C)cc1)c1ccc(NS(C)(=O)=O)c(Br)c1 (centres unmarked) [1-53]
Found: 24.9
